Each recorded value in this set is attributed to the DeepSol protein solubility set.

Test name: soluble on expression in E. coli; label from the status in PepcDB or PDB records

Polymer sequence	soluble on expression in E. coli
MNVPFWTEEHVRATLPERDAESHKGTYGTALLLAGSDDMPGAALLAGLGAMRSGLGKLVIGTSENVIPLIVPVLPEATYWRDGWKKAADAQLEETYRAIAIGPGLPQTESVQQAVDHVLTADCPVILDAGALAKRTYPKREGPVILTPHPGEFFRMTGVPVNELQKKRAEYAKEWAAQLQTVIVLKGNQTVIAFPDGDCWLNPTGNGALAKGGTGDTLTGMILGMLCCHEDPKHAVLNAVYLHGACAELWTDEHSAHTLLAHELSDILPRVWKRFELEHHHHHH	soluble
MSLDDGTGLFTIGQLARRTGLSVRTIRYWSDEGALPPVTRSSGGYRLYDAGSVARLELIRTLRELGLGLDDVREVLAGETTVAEVAATHVTALDAQIRALKVTRAVLSTVARRGSTAEEMTLMNKLARLSAAERRRILEEFADEMFRGLDTADPVIRERMRNTAVDLPDEPTPEQVDAWVELVELLQDPEFRAQMRAAAEFNAADRGHDSPAGASLWFVRRLVQLAADARQRGIAPEAPEAEEVLRELLGEADGAADRAAVLERLEATSNDRVARYRELLAVVKGGGPLPAHREEFGWVVAALRAREGHHHHHH	soluble
MSLKAIFWDMDGTMVDSEPQWGIATYELSEAMGRRLTPELRELTVGSSLPRTMRLCAEHAGITLSDADYERYRAGMFARVHELFDESLVPNPGVTELLTELKALEIPMLVTTNTERDLATRSVAAVGNEFFIGSIAGDEVPTAKPAPDMYLEAARRVGFDPSECLVFEDSYNGMLGAVTAGCRVIGLHPEEVQAPEGVVPLRSLHGKNSFEGVTAEMVTAWYHQIEPAGVAKEGHHHHHH	soluble
EHRSIMNTLNFLESHYPVTAEDAYLLKTNYVFDVSISELFGWFIGDGRLVILPPNGEKSPQLCMDYIETYKVTHINFVPAMLHVFLEMAKDNKRFTEDGPLKYMMVAGEAFPKVLVKKAVSLFTNCRVENIYGPTEASIYAAYFGCGKGDIASHHTPIGKP	not soluble
MRYDVLARAGFARRGNLHLPHSIVETPVFMPVGTQGTMKGIVPEQLVSMDCRILLCNTYHLGHRPGHERVKAAGGLHKMMNWNRSILTDSGGFQMVSLSKLMTVDENGVNFESPHTGEMMALPPEKSIEIQQALGADIMMQLDHVIHVLTTGDIVKEAMHRSIRWLDRCKVAHTRDDQAMFPILQGGLNLELRKECAKEMAKRAKVGIAIGGLSGGEEKDHFWRVVAACCAALPPHLPRYVMGVGFPVDLVICSFLGADMFDCVYPTRTARFGTAMVRRGGLMQLNQKRYKEDFLPIDKKCECNTCKNYTRAYIHSIVGKETVGCHLVSVHNIKHQLDLMRDVRQAIQSNSVEQFLKQFLYDYYGPIQSENPSKQDSEKMREVPQWVRDAVDHMGYKLDF	not soluble
